Target: T1, Human CD228 protein (human, UniProt P08582 20-708, limits assumed)
T1 construct: Recombinant protein made in CHO cells, purified over a Ni column; The printed entry begins with the leader (MRGPSG...) and ends with ten His; also called hCD228; CD228-His protein
T1 sequence: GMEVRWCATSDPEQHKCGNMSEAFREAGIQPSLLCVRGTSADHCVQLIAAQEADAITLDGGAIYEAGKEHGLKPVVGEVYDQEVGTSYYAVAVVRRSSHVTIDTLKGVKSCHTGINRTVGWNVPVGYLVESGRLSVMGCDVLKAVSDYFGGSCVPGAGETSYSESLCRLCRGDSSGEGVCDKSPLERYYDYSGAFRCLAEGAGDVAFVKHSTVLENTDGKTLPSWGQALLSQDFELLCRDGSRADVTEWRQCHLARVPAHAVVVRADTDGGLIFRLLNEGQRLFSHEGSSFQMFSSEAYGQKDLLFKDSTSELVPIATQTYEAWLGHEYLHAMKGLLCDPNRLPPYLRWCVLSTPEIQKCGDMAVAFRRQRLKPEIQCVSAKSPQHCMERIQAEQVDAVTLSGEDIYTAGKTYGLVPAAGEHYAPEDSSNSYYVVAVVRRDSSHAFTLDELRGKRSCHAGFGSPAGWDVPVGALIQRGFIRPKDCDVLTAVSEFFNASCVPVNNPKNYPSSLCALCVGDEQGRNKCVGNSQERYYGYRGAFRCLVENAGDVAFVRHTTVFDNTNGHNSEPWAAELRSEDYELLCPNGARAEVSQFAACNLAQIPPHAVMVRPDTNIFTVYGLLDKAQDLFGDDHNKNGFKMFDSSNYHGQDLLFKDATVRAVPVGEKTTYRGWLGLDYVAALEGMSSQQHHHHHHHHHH
Assay: Octet competition on His-chip CD228; competitor: CA13
READOUT: Octet response value
Please give the numeric answer without any surrounding text.

For CA13 (antibody, human IgG1, kappa, V domains shown, Intact IgG1 from fully human antibody-transgenic mice) VH: EVQLVESGGGVVQPGRSLRLSCAASGFTFSSYAMHWVRQAPGKGLEWVAVISYDGSNKYYADSVKGRFTISRDNSKNTLFLQMNSLRAEDTAVYYCARDVYHYGSRSPYYYGMDVWGQGTTVTVSS VL: DIVMTQSPSSLSASVGDRVTITCRASQGISNYLAWFQQKPGKVPKLLIYAASTLQSGVPSRFSGSGSGTDFTLTISSLQPEDVATYYCQKYNSAPFTFGPGTKVDIKR , what is its reported Octet response value?
-0.0011
